Origin of measurements: the array DNA melting data of Ke et al. (doi:10.1101/2024.01.08.574731)

// reported folding enthalpy for each item listed
- Assay summary: folding enthalpy; higher = less favourable; fluorescence melt of hairpins on a sequencing array, two-state fit
- Run parameters: sodium 0.088 M

Sequence code	Unit name	folding enthalpy
GGCAACACGAAAGTGGCC (((..(((....))))))	kcal/mol	-37.4
GAGAGCCGAAAGGCACTC (((.(((....))).)))	kcal/mol	-20.2
GAAGGCCGAAAGGCATTC (((.(((....))).)))	kcal/mol	-24.2
GATCCGGAGCGGATC ((((((...))))))	kcal/mol	-33.3
GCGATTGGAAACGATTGC ((.((.(....).)).))	kcal/mol	-26.7
GTCTGGGGAAACCTGGAC (((..((....))..)))	kcal/mol	-23.9
GCCAAGCGAAAGCATGGC ((((.((....)).))))	kcal/mol	-34.9
GTCTTCGAAAGAATTGAC ((((((....)))..)))	kcal/mol	-10.7
